From: patent US6686349B2

biological target: PDEV (UniProt O76074)
pKi: −log10 of the molar value.
READOUT TYPE: pKi

- CN1CC(=O)N2[C@H](c3ccc4c(c3)CCO4)c3[nH]c4ccccc4c(=O)c3[C@H]2C1=O [Compound 2]: 7.16
- CN1CC(=O)N2[C@@H](c3ccc4c(c3)OCO4)c3[nH]c4ccccc4c(=O)c3[C@@H]2C1=O [Compound 4]: 7.10

(I) O=C1[C@H]2c3c([nH]c4ccccc4c3=O)[C@@H](c3ccc4c(c3)OCO4)N2C(=O)CN1Cc1ccccn1 [Compound 10]
(II) CN1CCC(=O)N2[C@H](c3ccc4c(c3)OCO4)c3[nH]c4ccccc4c(=O)c3[C@@H]2C1=O [Compound 7]
(III) CN1CC(=O)N2[C@H](c3ccc4c(c3)OCO4)c3[nH]c4ccccc4c(=O)c3[C@@H]2C1=O [Compound 8]
Reorder the items by pKi, least to greatest. In your reply, arrange the labels in the requested order.
II, I, III
(II: 6.83, I: 7.20, III: 7.85)
